assay: Enzymatic metabolic stability; assay type: in vitro ADME; settings: Intrinsic half-life (t1/2)

| compound | half-life |
| --- | --- |
| Cc1nn(-c2ccc(Cl)cc2)c2c1C(c1ccc(Cl)cc1Cl)C(C#N)=C(N)O2 (stereo not shown) | > 2 h |

----------
tested on: Vero E6 cells; details: read-out: Vero E6 Cytotoxicity (IC50); MTT
pIC50: −log10 of the molar value.
Listed compounds paired with reported pIC50
measuredParameter: pIC50

| compound | measuredParameter | testValue |
| --- | --- | --- |
| Cc1nn(-c2ccc(Cl)cc2)c2c1C(c1ccc(Cl)cc1Cl)C(C#N)=C(N)O2 (centres unmarked) | pIC50 | 4.21 |
| Cc1nn(-c2ccc(Cl)cc2)c2c1C(c1ccc(O)cc1)C(C#N)=C(N)O2 (centres unmarked) | pIC50 | 4.17 |
